Below, each of the compounds is paired with its reported EC50 value.
# Tested on: SK-MEL-28 (human skin melanoma)
# assay_details: Photodynamic activity (phototoxicity, neutral red uptake) on SK-MEL-28
# Type: cell-based
# conditions: Homo sapiens, SK-MEL-28, light or radiation study; 12 h incubation, Xe-lamp 15 min, λ > 570 nm, 11.2 J/cm^2; mean ± SD; t.w. = this work
parameter_measured: EC50 (nM)

* O=S(=O)([O-])c1ccc2c(c1)-c1nc-2nc2[nH]c(nc3nc(nc4[nH]c(n1)c1ccccc41)-c1ccc(S(=O)(=O)[O-])cc1-3)c1ccc(S(=O)(=O)[O-])cc21.[Na+].[Na+].[Na+] | 300
* C=Cc1c(C)c2cc3nc(cc4[nH]c(cc5nc(cc1[nH]2)C(C)=C5CCC(=O)O)c(CCC(=O)OC)c4C)[C@@]1(C)C3=CC=C(C(=O)OC)[C@H]1C(=O)OC [verteporfin, reference compound] | 21

----------
# assay_details: Absorption and fluorescence emission spectra in DMF
# Format: physicochemical
# conditions: in DMF
parameter_measured: ε, extinction coefficient

* Cc1cc(OCc2cn(CCOCCOCCO)nn2)c(Oc2cc3c(cc2Oc2c(OCc4cn(CCOCCOCCO)nn4)cc(C)cc2OCc2cn(CCOCCOCCO)nn2)C2=Nc4c5ccccc5c5[n]4[Zn][n]4c(c6ccccc6c4=NC3=N2)=NC2=NC(=N5)c3ccccc32)c(OCc2cn(CCOCCOCCO)nn2)c1 | 280 340 M^–1cm^–1
* C[n+]1cccc(Oc2cc3c(cc2Oc2ccc[n+](C)c2)C2=Nc4c5cc(Oc6ccc[n+](C)c6)c(Oc6ccc[n+](C)c6)cc5c5[n]4[Zn][n]4c(c6cc(Oc7ccc[n+](C)c7)c(Oc7ccc[n+](C)c7)cc6c4=NC4=NC(=N5)c5cc(Oc6ccc[n+](C)c6)c(Oc6ccc[n+](C)c6)cc54)=NC3=N2)c1.[I-].[I-].[I-].[I-].[I-].[I-].[I-].[I-] | 41 730 M^–1cm^–1
* Cc1cc(Cn2cc[n+](C)c2)c(Oc2c3c(c(C)c(C)[n+]2C)C2=Nc4c5c(Oc6c(Cn7cc[n+](C)c7)cc(C)cc6Cn6cc[n+](C)c6)[n+](C)c(C)c(C)c5c5[n]4[Zn][n]4c(c6c(C)c(C)[n+](C)c(Oc7c(Cn8cc[n+](C)c8)cc(C)cc7Cn7cc[n+](C)c7)c6c4=NC4=NC(=N5)c5c4c(C)c(C)[n+](C)c5Oc4c(Cn5cc[n+](C)c5)cc(C)cc4Cn4cc[n+](C)c4)=NC3=N2)c(Cn2cc[n+](C)c2)c1.[I-].[I-].[I-].[I-].[I-].[I-].[I-].[I-].[I-].[I-].[I-].[I-] [C11Zn] | 160 750 M^–1cm^–1
* O=S(=O)([O-])c1ccc2c(c1)-c1nc-2nc2[nH]c(nc3nc(nc4[nH]c(n1)c1ccccc41)-c1ccc(S(=O)(=O)[O-])cc1-3)c1ccc(S(=O)(=O)[O-])cc21.[Na+].[Na+].[Na+] | 104 650 M^–1cm^–1

----------
# assay_details: Quantum yield of singlet oxygen production, comparative method with DPBF scavenger
# Assay type: physicochemical
# conditions: in DMF, ZnPc as reference
Mark label 1 only for ΦΔ, quantum yield of singlet oxygen production values smaller than 0.3; exact matches and larger values are label 0.

- CC[N+](CC)(CC)CCSc1cc2c(cc1SCC[N+](CC)(CC)CC)C1=Nc3c4cc(SCC[N+](CC)(CC)CC)c(SCC[N+](CC)(CC)CC)cc4c4[n]3[Zn][n]3c(c5cc(SCC[N+](CC)(CC)CC)c(SCC[N+](CC)(CC)CC)cc5c3=NC3=NC(=N4)c4cc(SCC[N+](CC)(CC)CC)c(SCC[N+](CC)(CC)CC)cc43)=NC2=N1.[I-].[I-].[I-].[I-].[I-].[I-].[I-].[I-] [C8Zn]: label 0
- Cc1cc(OCc2cn(CCOCCOCCO)nn2)c(Oc2cc3c(cc2Oc2c(OCc4cn(CCOCCOCCO)nn4)cc(C)cc2OCc2cn(CCOCCOCCO)nn2)C2=Nc4c5ccccc5c5[n]4[Zn][n]4c(c6ccccc6c4=NC3=N2)=NC2=NC(=N5)c3ccccc32)c(OCc2cn(CCOCCOCCO)nn2)c1 [N3Zn]: label 0
- Cc1cc(Cn2cc[n+](C)c2)c(Oc2c3c(c(C)c(C)[n+]2C)C2=NC3=Nc3c4cc(SC(C)(C)C)c(SC(C)(C)C)cc4c4[n]3[Zn][n]3c(c5cc(SC(C)(C)C)c(SC(C)(C)C)cc5c3=N2)=NC2=NC(=N4)c3cc(SC(C)(C)C)c(SC(C)(C)C)cc32)c(Cn2cc[n+](C)c2)c1.[I-].[I-].[I-] [C2Zn]: label 0
- O=S(=O)([O-])c1ccc2c(c1)-c1nc-2nc2[nH]c(nc3nc(nc4[nH]c(n1)c1ccccc41)-c1ccc(S(=O)(=O)[O-])cc1-3)c1ccc(S(=O)(=O)[O-])cc21.[Na+].[Na+].[Na+] [A9H]: label 1
- Cc1cc(Cn2cc[n+](C)c2)c(Oc2cc3c(cc2Oc2c(Cn4cc[n+](C)c4)cc(C)cc2Cn2cc[n+](C)c2)C2=Nc4c5ccccc5c5[n]4[Zn][n]4c(c6ccccc6c4=NC3=N2)=NC2=NC(=N5)c3ccccc32)c(Cn2cc[n+](C)c2)c1.[I-].[I-].[I-].[I-] [C3Zn]: label 0
- O=C([O-])c1cc(C(=O)[O-])cc(-c2cc3c(cc2-c2cc(C(=O)[O-])cc(C(=O)[O-])c2)C2=Nc4c5ccccc5c5[n]4[Zn][n]4c(c6ccccc6c4=NC3=N2)=NC2=NC(=N5)c3ccccc32)c1.[Na+].[Na+].[Na+].[Na+] [A2Zn]: label 1
- OCc1cc(CO)cc(OCCCCSC2=C(SCCCCOc3cc(CO)cc(CO)c3)C3=Nc4c5ccccc5c5[n]4[Mg][n]4c(c6ccccc6c4=NC4=NC(=N5)c5ccccc54)=NC2=N3)c1 [N2Mg]: label 1
- O=S(=O)([O-])c1cc(S(=O)(=O)[O-])c2cc(Oc3cccc4c3C3=NC4=Nc4c5c(Oc6ccc7cc(S(=O)(=O)[O-])cc(S(=O)(=O)[O-])c7c6)cccc5c5[n]4[Zn][n]4c(c6cccc(Oc7ccc8cc(S(=O)(=O)[O-])cc(S(=O)(=O)[O-])c8c7)c6c4=NC4=NC(=N5)c5c(Oc6ccc7cc(S(=O)(=O)[O-])cc(S(=O)(=O)[O-])c7c6)cccc54)=N3)ccc2c1.[Na+].[Na+].[Na+].[Na+].[Na+].[Na+].[Na+].[Na+] [A7Zn]: label 0
- O=C([O-])c1cc(Oc2cc3c(cc2Oc2cc(C(=O)[O-])cc(C(=O)[O-])c2)C2=Nc4c5ccccc5c5[n]4[Zn][n]4c(c6ccccc6c4=NC3=N2)=NC2=NC(=N5)c3ccccc32)cc(C(=O)[O-])c1.[Na+].[Na+].[Na+].[Na+] [A1Zn]: label 1
- C[n+]1cccc(Oc2ccc3c(c2)C2=NC3=Nc3c4cc(Oc5ccc[n+](C)c5)ccc4c4[n]3[Zn][n]3c(c5ccc(Oc6ccc[n+](C)c6)cc5c3=NC3=NC(=N4)c4cc(Oc5ccc[n+](C)c5)ccc43)=N2)c1.F[P-](F)(F)(F)(F)F.F[P-](F)(F)(F)(F)F.F[P-](F)(F)(F)(F)F.F[P-](F)(F)(F)(F)F [C5Zn-PF 6]: label 0
- C[n+]1cccc(Oc2ccc3c(c2)C2=NC3=Nc3c4cc(Oc5ccc[n+](C)c5)ccc4c4[n]3[Zn][n]3c(c5ccc(Oc6ccc[n+](C)c6)cc5c3=NC3=NC(=N4)c4cc(Oc5ccc[n+](C)c5)ccc43)=N2)c1.[I-].[I-].[I-].[I-] [C5Zn-I]: label 0
- CC[N+](CC)(CC)CCSc1ccc(SCC[N+](CC)(CC)CC)c2c1C1=NC2=Nc2c3c(SCC[N+](CC)(CC)CC)ccc(SCC[N+](CC)(CC)CC)c3c3[n]2[Zn][n]2c(c4c(SCC[N+](CC)(CC)CC)ccc(SCC[N+](CC)(CC)CC)c4c2=NC2=NC(=N3)c3c(SCC[N+](CC)(CC)CC)ccc(SCC[N+](CC)(CC)CC)c32)=N1.[I-].[I-].[I-].[I-].[I-].[I-].[I-].[I-] [C9Zn]: label 0
- C[n+]1cccc(Oc2ccc3c(c2)C2=NC3=Nc3c4cc(Oc5ccc[n+](C)c5)ccc4c4[n]3[Zn][n]3c(c5ccc(Oc6ccc[n+](C)c6)cc5c3=NC3=NC(=N4)c4cc(Oc5ccc[n+](C)c5)ccc43)=N2)c1.O=S(=O)(O)O.O=S(=O)(O)O.O=S(=O)([O-])[O-].O=S(=O)([O-])[O-] [C5Zn-SO 4]: label 1
